Where these numbers come from: patent US8592426B2

- measuredTarget: UniProt:P46663
- Sequence (P46663 whole entry): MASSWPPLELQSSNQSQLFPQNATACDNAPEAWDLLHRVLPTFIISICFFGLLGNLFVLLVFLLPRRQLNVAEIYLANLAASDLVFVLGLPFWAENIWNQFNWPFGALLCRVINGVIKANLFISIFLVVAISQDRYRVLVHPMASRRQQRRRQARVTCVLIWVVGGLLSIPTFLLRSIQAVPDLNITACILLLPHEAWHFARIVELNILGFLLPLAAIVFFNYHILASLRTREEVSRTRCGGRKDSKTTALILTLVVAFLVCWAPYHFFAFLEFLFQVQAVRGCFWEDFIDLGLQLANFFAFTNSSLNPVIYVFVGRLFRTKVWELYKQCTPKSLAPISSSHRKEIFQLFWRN
- testDescription: Calcium mobilization assay (FLIPR, Fluo-4) in GeneBLAzer Bradykinin (B1)-NFAT-bla CHO-K1 cells
- settings: antagonist activity; CHO-K1 cells stably overexpressing the human bradykinin 1 receptor; read-out: Ca mobilization Assay IC50
pIC50: −log10 of the molar value.
Values of pIC50 greater than or equal to 8 map to yes; values below map to no.

Some solved cases for reference:
Cc1nc(-c2c(F)cc(Cl)cc2-c2cnc3c(c2)CCC3NC(=O)C2(NC(=O)OC(C)(C)C)CC2)no1 (racemic) : yes
Cc1nc(-c2c(F)cc(Cl)cc2-c2ccc3c(c2)OCC3NC(=O)C2(N)CC2)no1 (racemic) : no
Cn1nnc(-c2c(F)cc(Cl)cc2-c2cnc3c(c2)CCC3NC(=O)C2(NC(=O)c3ccno3)CC2)n1 (racemic) : yes
O=C(NC1(C(=O)NC2CCc3cc(-c4cc(Cl)cc(Cl)c4OCC(F)F)ccc32)CC1)C(F)(F)F (racemic) : no
Cc1nc(-c2c(F)cc(Cl)cc2-c2ccc3c(c2)CC[C@@H]3NC(=O)C2(NC(=O)c3cncnc3)COC2)no1 : yes

// query Dear colleague, could you confirm whether Cn1nnc(-c2c(F)cc(Cl)cc2-c2ccc3c(c2)SCC3NC(=O)C2(NC(=O)c3cncnc3)CC2)n1 (racemic) has pIC50 at or above 8?
// result yes

// query Dear colleague, could you confirm whether Cc1nc(-c2c(F)cc(Cl)cc2-c2cnc3c(c2)CCC3NC(=O)C2(NC(=O)C(F)(F)F)CC2)no1 (racemic) has pIC50 at or above 8?
// result yes
